# Test system: KNS-62 (Squamous Cell Lung Carcinoma);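 also: after 72 h of two-drug dosing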
# Protocol Notes: Bliss excess, mean over the matrix (fraction); higher = more synergy
# Bliss excess annotations
Hey, just send me the number, nothing else.

{"Molecule": "Cc1c2c(nn1C)CSCc1cc(n(C)n1)CSc1cc(c3ccccc3c1)OCCCc1c(C(=O)O)n(C)c3c-2c(Cl)ccc13 [AZD5991] + CS(=O)(=O)CCNCc1ccc(-c2ccc3ncnc(Nc4ccc(OCc5cccc(F)c5)c(Cl)c4)c3c2)o1 [Lapatinib] (first compound max 1 µM, 7x7, partner max 10 µM)", "Bliss excess": -0.0155}
{"Molecule": "CN(CCO)CC[C@H](CSc1ccccc1)Nc1ccc(S(=O)(=O)NC(=O)c2ccc(N3CCC([C@@H](O)c4ccccc4-c4ccc(Cl)cc4)CC3)cc2)cc1S(=O)(=O)C(F)(F)F [AZD4320] + C[C@@H]1COCCN1C2=NC(=NC(=C2)C3(CC3)[S@](=N)(=O)C)C4=C5C=CNC5=NC=C4 [AZD6738] (first compound max 1 µM, 7x7, partner max 10 µM)", "Bliss excess": -0.0338}
{"Molecule": "Cc1c2c(nn1C)CSCc1cc(n(C)n1)CSc1cc(c3ccccc3c1)OCCCc1c(C(=O)O)n(C)c3c-2c(Cl)ccc13 [AZD5991] + CN(C)CCCOc1ccc(-c2ccc3ncc4c(c3c2)n(C2CCOCC2)c(=O)n4C)cn1 [AZD0156] (first compound max 1 µM, 7x7, partner max 1 µM)", "Bliss excess": -0.0201}
{"Molecule": "Cc1c2c(nn1C)CSCc1cc(n(C)n1)CSc1cc(c3ccccc3c1)OCCCc1c(C(=O)O)n(C)c3c-2c(Cl)ccc13 [AZD5991] + C=CCn1c(=O)c2cnc(Nc3ccc(N4CCN(C)CC4)cc3)nc2n1-c1cccc(C(C)(C)O)n1 [AZD1775] (first compound max 1 µM, partner max 1 µM)", "Bliss excess": 0.0251}
{"Molecule": "Cc1c2c(nn1C)CSCc1cc(n(C)n1)CSc1cc(c3ccccc3c1)OCCCc1c(C(=O)O)n(C)c3c-2c(Cl)ccc13 [AZD5991] + Cc1cc2ncnn2cc1Nc1ncc2c(n1)n(C1CCOCC1)c(=O)n2C [AZD7648] (first compound max 1 µM, 7x7, partner max 10 µM)", "Bliss excess": 0.0266}

Ask | Give the reported Bliss excess for CC1(C)CCC(CN2CCN(c3ccc(C(=O)NS(=O)(=O)c4ccc(NCC5CCOCC5)c([N+](=O)[O-])c4)c(Oc4cnc5[nH]ccc5c4)c3)CC2)=C(c2ccc(Cl)cc2)C1 [Venetoclax] + CS(=O)(=O)CCNCc1ccc(-c2ccc3ncnc(Nc4ccc(OCc5cccc(F)c5)c(Cl)c4)c3c2)o1 [Lapatinib] (first compound max 1 µM, 7x7, partner max 10 µM) (system: KNS-62 (Squamous Cell Lung Carcinoma)).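 Also: after 72 h of two-drug dosing.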
Reply | -0.0116

Ask | Param readout = Bliss excess; param system = KNS-62 (Squamous Cell Lung Carcinoma); param query = Cc1nc(Nc2ncc(C(=O)Nc3c(C)cccc3Cl)s2)cc(N2CCN(CCO)CC2)n1 [Dasatinib] + CC(=O)Nc1cccc(-n2c(=O)n(C3CC3)c(=O)c3c(Nc4ccc(I)cc4F)n(C)c(=O)c(C)c32)c1 [Trametinib] (first compound max 2 µM, 7x7, partner max 1 µM) ; response: value;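 also: after 72 h of two-drug dosing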
Reply | -0.0815

Ask | // lookup Bliss excess | system=KNS-62 (Squamous Cell Lung Carcinoma) | key= C[C@@H](c1ccc2nccn2c1)n1nnc2ncc(-c3cnn(C)c3)nc21 [Savolitinib] + Cc1c2c(nn1C)CSCc1cc(n(C)n1)CSc1cc(c3ccccc3c1)OCCCc1c(C(=O)O)n(C)c3c-2c(Cl)ccc13 [AZD5991] (first compound max 1 µM, 7x7, partner max 1 µM);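 also: after 72 h of two-drug dosing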
Reply | -0.0471

Ask | Field: Bliss excess (KNS-62 (Squamous Cell Lung Carcinoma)). Entry: O=C(c1cc(Cc2n[nH]c(=O)c3ccccc23)ccc1F)N1CCN(C(=O)C2CC2)CC1 [Olaparib] + CN(CC[C@H](CSC1=CC=CC=C1)NC2=C(C=C(C=C2)S(=O)(=O)NC(=O)C3=CC=C(C=C3)N4CCC(CC4)[C@H](C5=CC=CC=C5C6=CC=C(C=C6)Cl)O)S(=O)(=O)C(F)(F)F)CCO [AZD4320] (first compound max 10 µM, 7x7, partner max 1 µM)
Reply | -0.0436

Ask | Record CN(CCO)CC[C@H](CSc1ccccc1)Nc1ccc(S(=O)(=O)NC(=O)c2ccc(N3CCC([C@@H](O)c4ccccc4-c4ccc(Cl)cc4)CC3)cc2)cc1S(=O)(=O)C(F)(F)F [AZD4320] + CC(=O)O[C@H]1C(=O)[C@@]2(C)[C@H]([C@H](OC(=O)c3ccccc3)[C@]3(O)C[C@H](OC(=O)[C@H](O)[C@@H](NC(=O)c4ccccc4)c4ccccc4)C(C)=C1C3(C)C)[C@]1(OC(C)=O)CO[C@@H]1C[C@@H]2O [Paclitaxel] (first compound max 1 µM, 7x7, partner max 3 µM) : what is its Bliss excess with KNS-62 (Squamous Cell Lung Carcinoma)?
Reply | 0.185

Ask | Notebook: pull reported Bliss excess for KNS-62 (Squamous Cell Lung Carcinoma), entry COc1cccc(OCCCN)c1-c1cc(Nc2cnc(C#N)cn2)n[nH]1 [Prexasertib] + Cc1cc2ncnn2cc1Nc1ncc2c(n1)n(C1CCOCC1)c(=O)n2C [AZD7648] (first compound max 1 µM, 7x7, partner max 10 µM)
Reply | -0.0225

Ask | Find the measured Bliss excess: item COc1cccc(OCCCN)c1-c1cc(Nc2cnc(C#N)cn2)n[nH]1 [Prexasertib] + CN(C)CCCOc1ccc(-c2ccc3ncc4c(c3c2)n(C2CCOCC2)c(=O)n4C)cn1 [AZD0156] (first compound max 1 µM, 7x7, partner max 1 µM) , target or system KNS-62 (Squamous Cell Lung Carcinoma).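 Also: after 72 h of two-drug dosing.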
Reply | 0.0357
